MEASURED_ON: T1, His-tagged PD-L1 ECD protein (ACROBiosystems) (human, UniProt Q9NZQ7 19-238)
T1 construct: Bought protein; also called PD-L1-His; PD-L1/His; not shown: His tag
TEST: SPR, supernatant IgG captured, PD-L1-His analyte
This listing pairs binders with measured kon.
Value expressed in M⁻¹ s⁻¹; do not type the unit.

Study these solved cases before continuing.
BINDER: 29A8_chimeric (antibody, human IgG1, kappa, N297A, V domains shown, Human IgG1 with effector-less Fc mutations, human kappa; also called chimeric 29A8H8C7) VH: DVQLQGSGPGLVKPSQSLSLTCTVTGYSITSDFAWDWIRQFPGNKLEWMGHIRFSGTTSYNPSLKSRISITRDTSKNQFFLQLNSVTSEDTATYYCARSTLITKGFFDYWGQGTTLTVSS VL: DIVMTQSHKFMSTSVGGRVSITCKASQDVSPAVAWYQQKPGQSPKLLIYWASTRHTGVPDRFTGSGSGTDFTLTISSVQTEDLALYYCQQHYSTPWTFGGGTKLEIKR
MEASURE_UNIT: M⁻¹ s⁻¹
kon: 530000

BINDER: 53C1_VH.M2-VL (antibody, human IgG1, kappa, N297A, V domains shown, Chimeric mutant, VH N57A in the entry; human IgG1 effector-less Fc, kappa) VH: QVQLQQSGNELARPGASVRLSCKASGYIFTGYGITWVRQRPGQGLEWIGEIFPRRVATYYSEKFKGRATLTADISSSTAYMELRSLTSEDSAVYFCARDYDPYFALDYWGQGTSVTVSS VL: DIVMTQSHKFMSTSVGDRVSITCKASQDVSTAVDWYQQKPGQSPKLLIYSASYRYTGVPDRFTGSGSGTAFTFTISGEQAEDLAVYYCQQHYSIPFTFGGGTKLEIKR
MEASURE_UNIT: M⁻¹ s⁻¹
kon: 200000

BINDER: 53C1_VH-VL.M1 (antibody, human IgG1, kappa, N297A, V domains shown, Chimeric mutant, VL K24R in the entry; human IgG1 effector-less Fc, kappa) VH: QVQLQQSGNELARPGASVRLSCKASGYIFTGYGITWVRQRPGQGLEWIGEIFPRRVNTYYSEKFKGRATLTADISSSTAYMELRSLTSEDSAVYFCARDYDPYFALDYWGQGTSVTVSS VL: DIVMTQSHKFMSTSVGDRVSITCRASQDVSTAVDWYQQKPGQSPKLLIYSASYRYTGVPDRFTGSGSGTAFTFTISGEQAEDLAVYYCQQHYSIPFTFGGGTKLEIKR
MEASURE_UNIT: M⁻¹ s⁻¹
kon: 260000

BINDER: 53C1_VH.M1-VL.M1 (antibody, human IgG1, kappa, N297A, V domains shown, Chimeric mutant (VH N57S, VL K24R in the entries); human IgG1 effector-less Fc, kappa) VH: QVQLQQSGNELARPGASVRLSCKASGYIFTGYGITWVRQRPGQGLEWIGEIFPRRVSTYYSEKFKGRATLTADISSSTAYMELRSLTSEDSAVYFCARDYDPYFALDYWGQGTSVTVSS VL: DIVMTQSHKFMSTSVGDRVSITCRASQDVSTAVDWYQQKPGQSPKLLIYSASYRYTGVPDRFTGSGSGTAFTFTISGEQAEDLAVYYCQQHYSIPFTFGGGTKLEIKR
MEASURE_UNIT: M⁻¹ s⁻¹
kon: 240000

Field: next binder
Q) Requested read-out: kon. Entry: 53C1_VH.M2-VL.M1 (antibody, human IgG1, kappa, N297A, V domains shown, Chimeric mutant (VH N57A, VL K24R in the entries); human IgG1 effector-less Fc, kappa) VH: QVQLQQSGNELARPGASVRLSCKASGYIFTGYGITWVRQRPGQGLEWIGEIFPRRVATYYSEKFKGRATLTADISSSTAYMELRSLTSEDSAVYFCARDYDPYFALDYWGQGTSVTVSS VL: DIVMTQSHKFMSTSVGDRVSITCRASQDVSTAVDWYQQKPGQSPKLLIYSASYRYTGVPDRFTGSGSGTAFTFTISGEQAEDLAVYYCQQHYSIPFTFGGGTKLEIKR
A) 200000
